assay: Half life in human plasma; assay type: ADME, cell-free
Assay Metric: half-life

{"columns": ["Compound", "Assay Metric", "Observed"],
 "data": [
  ["COc1ccc2cc(C(=O)OCOP(=O)(CC/C=C(\\C)CO)OC)c(=O)oc2c1 (stereo unspecified)", "half-life", "6 to 8 h"]
]}

###

// reported Ratio EC50 for each item listed
target: Butyrophilin subfamily 3 member A1 (Homo sapiens, UniProt O00481); assay: Binding affinity to BTN3A1 in human PBMC assessed as stimulation of Vgamma9 Vdelta2 T cells at 100 nM incubated for 3 days and measured after 11 days post compound removal by flow cytometry relative to sodium (E)-5-hydroxy-4-methylpent-3-enylphosphonate
Sequence (O00481 30-513 limits assumed): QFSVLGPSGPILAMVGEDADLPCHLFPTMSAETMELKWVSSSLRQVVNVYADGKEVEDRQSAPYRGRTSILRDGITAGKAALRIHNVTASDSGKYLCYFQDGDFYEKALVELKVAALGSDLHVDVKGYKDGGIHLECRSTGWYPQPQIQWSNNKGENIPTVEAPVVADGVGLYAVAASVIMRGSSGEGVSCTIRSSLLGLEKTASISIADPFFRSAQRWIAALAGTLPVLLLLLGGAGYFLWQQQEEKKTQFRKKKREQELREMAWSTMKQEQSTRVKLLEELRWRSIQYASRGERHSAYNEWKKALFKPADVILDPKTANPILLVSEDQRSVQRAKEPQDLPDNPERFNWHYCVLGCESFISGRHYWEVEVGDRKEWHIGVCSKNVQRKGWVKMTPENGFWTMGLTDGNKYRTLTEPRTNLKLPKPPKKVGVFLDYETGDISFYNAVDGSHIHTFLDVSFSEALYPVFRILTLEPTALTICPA

{"columns": ["Compound", "Ratio EC50"],
 "data": [
  ["C/C(=C\\CCP(=O)(NCC(=O)OC(C)C)Oc1cccc2ccccc12)CO (stereo not drawn)", 12000],
  ["COC(=O)CNP(=O)(CC/C=C(\\C)CO)Oc1ccccc1 (stereo not drawn)", 2700],
  ["CCOC(=O)CNP(=O)(CC/C=C(\\C)CO)Oc1ccc2ccccc2c1 (stereo not drawn)", 7500],
  ["COC(=O)CNP(=O)(CC/C=C(\\C)CO)Oc1ccc2ccccc2c1 (stereo not drawn)", 6900],
  ["C/C(=C\\CCP(=O)(NCC(=O)OC(C)C)Oc1ccc2ccccc2c1)CO (stereo not drawn)", 4900],
  ["COC(=O)CNP(=O)(CC/C=C(\\C)CO)Oc1cccc2ccccc12 (stereo not drawn)", 9100],
  ["C/C(=C\\CCP(=O)(NCC(=O)OC(C)C)Oc1ccccc1)CO (stereo not drawn)", 3600],
  ["CCOC(=O)CNP(=O)(CC/C=C(\\C)CO)Oc1cccc2ccccc12 (stereo not drawn)", 11000]
]}

###

assay: Stability in 50% pooled human plasma assessed as compound hydrolysis at 100 uM after 2 hrs by LC-MS method relative to control; type: ADME, cell-free; conditions: read-out: Drug degradation

{"columns": ["Compound String", "metabolised at 2 h, 100 µM"],
 "data": [
  ["C/C(=C\\CCP(=O)(OCOC(=O)C(C)(C)C)OCOC(=O)C(C)(C)C)CO", "> 95%"]
]}

###

// reported log10 EC50 for each item listed
biological target: Butyrophilin subfamily 3 member A1 (Homo sapiens); test: Binding affinity to BTN3A1 in human Vgamma9 Vdelta2 T cells mixed with human K562 cells pretreated with compound for 4 hrs assessed as INF-gamma production measured after 20 hrs by ELISA
Sequence (O00481 whole entry): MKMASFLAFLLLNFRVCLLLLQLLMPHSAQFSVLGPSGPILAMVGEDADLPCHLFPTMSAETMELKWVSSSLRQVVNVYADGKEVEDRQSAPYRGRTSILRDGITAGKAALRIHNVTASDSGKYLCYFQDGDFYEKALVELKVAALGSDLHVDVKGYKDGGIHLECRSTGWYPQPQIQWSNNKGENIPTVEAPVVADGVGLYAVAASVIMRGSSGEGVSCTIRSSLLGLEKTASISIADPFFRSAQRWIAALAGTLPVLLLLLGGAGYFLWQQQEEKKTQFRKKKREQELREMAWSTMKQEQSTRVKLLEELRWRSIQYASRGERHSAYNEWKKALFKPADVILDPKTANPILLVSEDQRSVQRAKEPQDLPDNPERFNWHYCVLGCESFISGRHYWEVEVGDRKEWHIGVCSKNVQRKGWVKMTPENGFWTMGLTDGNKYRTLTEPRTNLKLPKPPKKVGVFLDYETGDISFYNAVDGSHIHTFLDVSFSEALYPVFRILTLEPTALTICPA
Assay Metric: log10 EC50 (log10 of the value in nM)

{"columns": ["Compound", "log10 EC50"],
 "data": [
  ["CCOC(=O)CNP(=O)(CC/C=C(\\C)CO)Oc1cccc2ccccc12 (centres undefined)", 1.79],
  ["COC(=O)CNP(=O)(CC/C=C(\\C)CO)Oc1ccc2ccccc2c1 (centres undefined)", 2.08],
  ["CCOC(=O)CNP(=O)(CC/C=C(\\C)CO)Oc1ccc2ccccc2c1 (centres undefined)", 1.97],
  ["CCOC(=O)CNP(=O)(CC/C=C(\\C)CO)Oc1ccccc1 (centres undefined)", 2.23],
  ["COC(=O)CNP(=O)(CC/C=C(\\C)CO)Oc1ccccc1 (centres undefined)", 2.66],
  ["COC(=O)CNP(=O)(CC/C=C(\\C)CO)Oc1cccc2ccccc12 (centres undefined)", 2.11],
  ["C/C(=C\\CCP(=O)(NCC(=O)OC(C)C)Oc1cccc2ccccc12)CO (centres undefined)", 2.46],
  ["C/C(=C\\CCP(=O)(NCC(=O)OC(C)C)Oc1ccc2ccccc2c1)CO (centres undefined)", 2.32],
  ["C/C(=C\\CCP(=O)(NCC(=O)OC(C)C)Oc1ccccc1)CO (centres undefined)", 2.87]
]}
